Target desc: PDGF-Ra (Homo sapiens)
Construct: host or cells: G-292 human osteosarcoma cells
Sequence (P16234 24-1089): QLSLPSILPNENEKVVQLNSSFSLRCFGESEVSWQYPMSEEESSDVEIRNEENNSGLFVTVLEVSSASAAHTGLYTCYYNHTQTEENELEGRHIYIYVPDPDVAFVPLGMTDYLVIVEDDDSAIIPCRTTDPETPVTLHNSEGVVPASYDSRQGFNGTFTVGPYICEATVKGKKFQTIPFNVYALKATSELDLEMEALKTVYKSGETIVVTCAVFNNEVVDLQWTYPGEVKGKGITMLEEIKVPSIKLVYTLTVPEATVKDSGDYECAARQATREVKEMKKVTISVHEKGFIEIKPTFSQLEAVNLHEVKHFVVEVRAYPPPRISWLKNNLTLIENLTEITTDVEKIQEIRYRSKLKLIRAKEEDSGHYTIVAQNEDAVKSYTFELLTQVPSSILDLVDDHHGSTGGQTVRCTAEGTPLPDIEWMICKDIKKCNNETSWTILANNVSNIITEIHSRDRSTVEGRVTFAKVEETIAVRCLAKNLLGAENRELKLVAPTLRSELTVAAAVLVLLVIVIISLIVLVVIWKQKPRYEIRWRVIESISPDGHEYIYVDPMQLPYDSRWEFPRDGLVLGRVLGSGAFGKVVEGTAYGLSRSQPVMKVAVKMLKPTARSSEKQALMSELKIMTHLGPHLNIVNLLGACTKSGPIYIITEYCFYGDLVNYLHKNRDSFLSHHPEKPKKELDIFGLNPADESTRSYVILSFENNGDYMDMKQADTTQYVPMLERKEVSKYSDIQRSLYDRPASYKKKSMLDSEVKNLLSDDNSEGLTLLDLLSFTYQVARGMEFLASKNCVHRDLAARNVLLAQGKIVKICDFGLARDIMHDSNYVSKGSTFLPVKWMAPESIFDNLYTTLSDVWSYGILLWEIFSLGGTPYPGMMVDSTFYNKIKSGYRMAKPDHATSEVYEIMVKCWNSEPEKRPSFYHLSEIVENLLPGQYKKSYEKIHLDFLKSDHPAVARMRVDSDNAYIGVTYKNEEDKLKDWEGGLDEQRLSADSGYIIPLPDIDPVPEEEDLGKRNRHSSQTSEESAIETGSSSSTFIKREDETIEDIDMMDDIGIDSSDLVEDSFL
Procedure text: Inhibitory activity against PDGF-Ra phosphorylation by PDGF-AA stimulation using G292
Assay type: cell-based
Reported conditions: > means inhibition at indicated concentration not more than 50%, < and << not less than 50%; read-out: PDGF (E) IC50

{"Compound": "COc1cc2nccc(Oc3ccc(NC(=S)NC(=O)c4ccc(Br)s4)c(C)c3)c2cc1OC [Example 692]", "Value prefix": ">", "IC50, nM": 100}
{"Compound": "COc1cc2nccc(Oc3cc(C)c(NC(=O)OC4CCOCC4)cc3C)c2cc1OC [Example 471]", "Value prefix": ">", "IC50, nM": 100}
{"Compound": "COc1cc2nccc(Oc3ccc(NC(=O)OC4CCN(C)CC4)c(C)c3C)c2cc1OC [Example 468]", "Value prefix": ">", "IC50, nM": 100}
{"Compound": "CCCCOc1ccc(C(=O)NC(=S)Nc2ccc(Oc3ccnc4cc(OC)c(OC)cc34)c(Cl)c2)cc1 [Example 752]", "Value prefix": ">", "IC50, nM": 100}
{"Compound": "COc1cccc(NC(=O)COc2ccc(Oc3ncnc4cc(OC)c(OC)cc34)cc2)c1 [Example 800]", "Value prefix": "<", "IC50, nM": 10}
{"Compound": "COc1cc2nccc(Oc3ccc(NC(=S)NC(=O)Cc4ccc(CBr)cc4)cc3)c2cc1OC [Example 1169]", "Value prefix": "=", "IC50, nM": 37}
{"Compound": "COc1cc2ncnc(Oc3ccc(NC(=O)OC4CCCN(C)C4)cc3)c2cc1OC (centres unmarked) [Example 465]", "Value prefix": "=", "IC50, nM": 56}
{"Compound": "CCCCN(CCCC)CCNC(=O)Nc1ccc(Oc2ccnc3cc(OC)c(OC)cc23)cc1 [Example 682]", "Value prefix": ">", "IC50, nM": 100}
{"Compound": "CCCc1ccc(C(=O)NC(=S)Nc2ccc(Oc3ccnc4cc(OC)c(OC)cc34)c(F)c2)cc1 [Example 998]", "Value prefix": "=", "IC50, nM": 25}
{"Compound": "COc1cc2nccc(Oc3ccc(NC(=O)NC4CCN(Cc5ccccc5)CC4)cc3)c2cc1OC [Example 590]", "Value prefix": "=", "IC50, nM": 54}
{"Compound": "COc1cc2nccc(Oc3ccc(NC(=S)NC(=O)C4CC4)cc3Cl)c2cc1OC [Example 1058]", "Value prefix": "=", "IC50, nM": 8}
{"Compound": "COc1cc2nccc(Oc3ccc(NC(=S)NC(=O)CCC4CCCC4)cc3)c2cc1OC [Example 1131]", "Value prefix": "=", "IC50, nM": 51}
{"Compound": "COc1cc2nccc(Oc3ccc(NC(=S)NC(=O)C4(C)CC4(Cl)Cl)cc3)c2cc1OC (centres unmarked) [Example 749]", "Value prefix": "=", "IC50, nM": 12}
{"Compound": "CCCCCC(=O)NC(=S)Nc1ccc(Oc2ncnc3cc(OC)c(OC)cc23)cc1 [Example 1189]", "Value prefix": "=", "IC50, nM": 26}
{"Compound": "COc1cc2nccc(Oc3ccc(OCCCOc4ccccc4F)cc3)c2cc1OC [Example 796]", "Value prefix": "=", "IC50, nM": 15}
{"Compound": "COc1cc2nccc(Oc3ccc(NC(=S)NC(=O)c4ccc(Br)cc4)cc3)c2cc1OC [Example 1166]", "Value prefix": "<", "IC50, nM": 10}
{"Compound": "COc1cc2ncnc(Oc3ccc(NC(=S)NC(=O)Cc4ccccc4C)cc3)c2cc1OC [Example 703]", "Value prefix": "<", "IC50, nM": 10}
{"Compound": "COc1cc2nccc(Oc3ccc(NCCCOc4ccccc4C)c(C)c3C)c2cc1OC [Example 890]", "Value prefix": "=", "IC50, nM": 95}
{"Compound": "COc1cc2nccc(Oc3ccc(NC(=S)NC(=O)c4cccc(C)c4)cc3)c2cc1OC [Example 930]", "Value prefix": "<", "IC50, nM": 10}
{"Compound": "COc1cc2ncnc(Oc3ccc(NC(=O)NCCN4CCOCC4)c([N+](=O)[O-])c3)c2cc1OC [Example 652]", "Value prefix": "=", "IC50, nM": 43}
{"Compound": "COc1cc2nccc(Oc3ccc(NC(=S)NC(=O)C(C)(C)C)cc3Cl)c2cc1OC [Example 1187]", "Value prefix": "=", "IC50, nM": 24}
{"Compound": "CCCC(CCN1CCOCC1)OC(=O)Nc1ccc(Oc2ncnc3cc(OC)c(OC)cc23)cc1 (centres unmarked) [Example 440]", "Value prefix": "=", "IC50, nM": 47}
{"Compound": "CCCC(CCN1CCCCC1)OC(=O)Nc1cc(C)c(Oc2ccnc3cc(OC)c(OC)cc23)cc1C (centres unmarked) [Example 446]", "Value prefix": ">", "IC50, nM": 100}
{"Compound": "COc1cc2ncnc(Oc3ccc(NC(=O)N4CCN(Cc5ccccc5)CC4)cc3)c2cc1OC [Example 690]", "Value prefix": ">", "IC50, nM": 100}
{"Compound": "COc1cc2ncnc(Oc3ccc(NC(=O)NCCN4CCCC4)c([N+](=O)[O-])c3)c2cc1OC [Example 653]", "Value prefix": "=", "IC50, nM": 23}
{"Compound": "COc1cc2nccc(Oc3ccc(NC(=S)NC(=O)COc4ccccc4C)cc3Cl)c2cc1OC [Example 740]", "Value prefix": "=", "IC50, nM": 23}
{"Compound": "COc1cc2nccc(Oc3ccc(NC(=O)OC4CCCN(C)C4)c(C)c3C)c2cc1OC (centres unmarked) [Example 464]", "Value prefix": "=", "IC50, nM": 55}
{"Compound": "COc1cc2ncnc(Oc3ccc(NC(=O)OC4CCCCCC4)c([N+](=O)[O-])c3)c2cc1OC [Example 507]", "Value prefix": "=", "IC50, nM": 44}
{"Compound": "CCCCCCOc1ccc(C(=O)NC(=S)Nc2ccc(Oc3ccnc4cc(OC)c(OC)cc34)cc2)cc1 [Example 755]", "Value prefix": ">", "IC50, nM": 100}
{"Compound": "COc1cc(Oc2ncnc3cc(OC)c(OC)cc23)ccc1NC(=O)NCCN1CCOCC1 [Example 631]", "Value prefix": "=", "IC50, nM": 39}
{"Compound": "COc1cc2ncnc(Oc3ccc(NC(=O)NC4CCN(Cc5ccccc5)CC4)cc3)c2cc1OC [Example 591]", "Value prefix": "=", "IC50, nM": 33}
{"Compound": "COc1cc2nccc(Oc3ccc(NC(=S)NC(=O)Cc4ccccc4Cl)cc3)c2cc1OC [Example 723]", "Value prefix": "=", "IC50, nM": 17}
